Reference source for all entries: patent US20220387586A1

- target or test system: T1, biotinylated PD1-ECD-AviHis (human, UniProt Q15116 25-170, biotinylated)
- T1 construct: also called huPD1; hu PD1; not shown: Avi-His tag
- T1 sequence (Q15116 25-170): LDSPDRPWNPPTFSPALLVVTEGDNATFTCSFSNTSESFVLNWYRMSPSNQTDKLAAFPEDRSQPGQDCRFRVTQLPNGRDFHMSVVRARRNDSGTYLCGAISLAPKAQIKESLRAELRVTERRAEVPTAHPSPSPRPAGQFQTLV
- experiment: PD-L1 replacing ELISA on coated PD1-ECD-AviHis; competitor PD-L1 Fc chimera
- Description: After washing (3×90 μl/well with PBST-buffer) 25 μl/well goat-anti-human H+L-POD (JIR, 109-036-088) was added in 1:1000 dilution and incubated at RT for 1 h on shaker. After washing (3×90 μl/well with PBST-buffer) 25 μl/well TMB substrate (Roche, 11835033001) was added and incubated until OD 2-3. Measurement took place at 370/492 nm.
test readout: IC50 (µg/mL)
// units = µg/mL; emit number, no label

Quick one: IC50 for PD1-0098 (antibody, V domains shown, Mouse hybridoma antibody) VH: DVQLQESGPGLVKPSQSLSLTCTVTGYSITSDYAWNWIRQFPGDKLEWLGYITYSGFTNYNPSLKSRISISRDTSKNQFFLQLNSVATEDTATYYCARWHGSAPWYFDYWGRGTTLTVSS VL: DVLMTQTPLSLPVSLGDQASISCRSSQNIVHSDGNTYLEWYLQKPGQSPNLLIYKVSRRFSGVPDRFSGSGSGTDFTLKISRVEAEDLGVYYCFQGSHFPLTFGAGTKLELK ?
0.174

Now consider PD1-0073 (antibody, V domains shown) VH: EVKLVESGGGLVKPGGSLKLSCAASGFTFSNYGMSWIRQTPEKGLEWVATISGGGRDTYYPDSVKGRFTISRDNVKNNLYLQMSSLRSEDTAFYYCASYYYGIDYWGQGTSVTVSS VL: DIVMTQPHKFMSTSVGDRVRITCKASQDVTTAVAWYQQKPGQSPKLLIYWASTRHTGVPDRFTGSGSGTEFTLTISSVQAEDLALYYCQQHYSIPWTFGGGTKLEIK .
0.124

Now consider PD1-0103 (antibody, V domains shown, Mouse hybridoma antibody; also called murine anti-PD1 antibody PD1-0103) VH: EVILVESGGGLVKPGGSLKLSCAASGFSFSSYTMSWVRQTPEKRLDWVATISGGGRDIYYPDSVKGRFTISRDNAKNTLYLEMSSLMSEDTALYYCVLLTGRVYFALDSWGQGTSVTVSS VL: KIVLTQSPASLPVSLGQRATISCRASESVDTSDNSFIHWYQQRPGQSPKLLIYRSSTLESGVPARFSGSGSRTDFTLTIDPVEADDVATYYCQQNYDVPWTFGGGTKLEIK .
0.182

Now consider PD1-0069 (antibody, V domains shown, Mouse hybridoma antibody) VH: QVQLQQSGPELVRPGVSVKISCKGSGYTFTDYAMHWVKQSHARTLEWIGVISTYSGDTNYNQKFKDKATMTVDKSSSTAYLELARMTSEDSAIYYCARLGITTGFAYWGQGTLVTVSA VL: DIVLTQSPASLAVSLGQRATISCRASKGVSTSSYSFMHWYQQKPRQPPKLLIKYASYLESGVPARFSGSGSGTDFTLNIHPVEEEDAATYYCHHSREFPWTFGGGTKLEIK .
0.225

Now consider PD1-0050 (antibody, V domains shown) VH: DVQLQESGPGLVKPSQSLSLTCTVTGYSITSDYAWNWIRQFPGNKLEWMGYITYTGRTSYNPSLKSRISITRDTSKNQFFLQLNSVTTEDTATYYCAREMDYYGSTLDYWGQGTTLTVSS VL: KIVLTQSPASLAVSLRQRATISCRASESVDRYGNSFIHWYQQKPGQPPKVLIYRASNLESGFPARFSGSGSRTDFTLTIDPVEADDAATYYCQQNNEDPYTFGSGTKLEIK .
0.128
